organism: Rattus norvegicus; test: Open TG-GATES - Regimen: Single; assay type: toxicity, organism-based, Sprague-Dawley; parameters: regimen Single, gender Male, age 6 weeks; conditions: in vivo, po, 0 mg/kg, 24 h, tissue Plasma, route gavage, dose level Control
quantity: RALB

* CN1C(=O)CCS(=O)(=O)C1c1ccc(Cl)cc1 (configuration not stated) | 2.7 g/dL
* CNC(=C[N+](=O)[O-])NCCSCc1ccc(CN(C)C)o1 | 3.5 g/dL
* CCOc1ccc(NC(C)=O)cc1 | 2.6 g/dL
* O=C(OC[C@H]1O[C@@H](OC(=O)c2cc(O)c(O)c(OC(=O)c3cc(O)c(O)c(O)c3)c2)[C@H](OC(=O)c2cc(O)c(O)c(OC(=O)c3cc(O)c(O)c(O)c3)c2)[C@@H](OC(=O)c2cc(O)c(O)c(OC(=O)c3cc(O)c(O)c(O)c3)c2)[C@@H]1OC(=O)c1cc(O)c(O)c(OC(=O)c2cc(O)c(O)c(O)c2)c1)c1cc(O)c(O)c(OC(=O)c2cc(O)c(O)c(O)c2)c1 | 3.7 g/dL
* CCCc1cc(=O)[nH]c(=S)[nH]1 | 3.7 g/dL
* CN(C)CCC(c1ccc(Cl)cc1)c1ccccn1 (configuration not stated) | 2.7 g/dL
* NC1=NC(=O)C(c2ccccc2)O1 (configuration not stated) | 2.7 g/dL

====

species: Rattus norvegicus; assay: Open TG-GATES - Regimen: Daily Repeat; format: toxicity, organism-based, Sprague-Dawley; parameters: regimen Daily Repeat, gender Male, age 6 weeks; settings: in vivo, po, 300 mg/kg, 72 h, tissue Blood, route gavage, dose level Middle, time 3 day
Use 20% as the dividing line for Neu, with the line itself on the YES side and lower values as NO.

* O=C(OC[C@H]1O[C@@H](OC(=O)c2cc(O)c(O)c(OC(=O)c3cc(O)c(O)c(O)c3)c2)[C@H](OC(=O)c2cc(O)c(O)c(OC(=O)c3cc(O)c(O)c(O)c3)c2)[C@@H](OC(=O)c2cc(O)c(O)c(OC(=O)c3cc(O)c(O)c(O)c3)c2)[C@@H]1OC(=O)c1cc(O)c(O)c(OC(=O)c2cc(O)c(O)c(O)c2)c1)c1cc(O)c(O)c(OC(=O)c2cc(O)c(O)c(O)c2)c1 [TANNIC ACID] | NO
* CNC(=C[N+](=O)[O-])NCCSCc1ccc(CN(C)C)o1 [RANITIDINE] | NO
* Cc1nnc2n1-c1ccc(Cl)cc1C(c1ccccc1Cl)=NC2 [TRIAZOLAM] | NO
* CCOc1ccc(NC(C)=O)cc1 [PHENACETIN] | NO
* CN/C(=N/CCSCc1nc[nH]c1C)NC#N [CIMETIDINE] | NO
* COC(=O)C1=C(C)NC(C)=C(C(=O)OC)C1c1ccccc1[N+](=O)[O-] [NIFEDIPINE] | YES

====

species on record: Rattus norvegicus; test: Open TG-GATES - Regimen: Daily Repeat; assay type: toxicity, organism-based, Sprague-Dawley; parameters: regimen Daily Repeat, gender Male, age 6 weeks; details: in vivo, po, 0 mg/kg, 72 h, tissue Liver, route gavage, dose level Control, time 3 day
quantity: LIVER (g)

* Brc1ccccc1 | 10
* Cc1nnc2n1-c1ccc(Cl)cc1C(c1ccccc1Cl)=NC2 | 10.5
* CC(C)NNC(=O)c1ccncc1 | 10.5
* CN1C(=O)CCS(=O)(=O)C1c1ccc(Cl)cc1 (stereo not drawn) | 10.6
* CCOc1ccc(NC(C)=O)cc1 | 11.5
* O=C(OC[C@H]1O[C@@H](OC(=O)c2cc(O)c(O)c(OC(=O)c3cc(O)c(O)c(O)c3)c2)[C@H](OC(=O)c2cc(O)c(O)c(OC(=O)c3cc(O)c(O)c(O)c3)c2)[C@@H](OC(=O)c2cc(O)c(O)c(OC(=O)c3cc(O)c(O)c(O)c3)c2)[C@@H]1OC(=O)c1cc(O)c(O)c(OC(=O)c2cc(O)c(O)c(O)c2)c1)c1cc(O)c(O)c(OC(=O)c2cc(O)c(O)c(O)c2)c1 | 10.5
* CCCc1cc(=O)[nH]c(=S)[nH]1 | 10.1
* NC1=NC(=O)C(c2ccccc2)O1 (stereo not drawn) | 11

====

species: Rattus norvegicus; test: Open TG-GATES - Regimen: Daily Repeat; format: toxicity, organism-based, Sprague-Dawley; parameters: regimen Daily Repeat, gender Male, age 6 weeks; conditions: in vivo, po, 300 mg/kg, […], tissue Plasma, route gavage, dose level Middle, time 14 day
quantity: TG

• CCOc1ccc(NC(C)=O)cc1 [PHENACETIN] = 91.2 mg/dL
• Cc1nnc2n1-c1ccc(Cl)cc1C(c1ccccc1Cl)=NC2 [TRIAZOLAM] = 105.4 mg/dL
• COC(=O)C1=C(C)NC(C)=C(C(=O)OC)C1c1ccccc1[N+](=O)[O-] [NIFEDIPINE] = 115.8 mg/dL
• CN/C(=N/CCSCc1nc[nH]c1C)NC#N [CIMETIDINE] = 129 mg/dL
• CNC(=C[N+](=O)[O-])NCCSCc1ccc(CN(C)C)o1 [RANITIDINE] = 142.4 mg/dL
• O=C(OC[C@H]1O[C@@H](OC(=O)c2cc(O)c(O)c(OC(=O)c3cc(O)c(O)c(O)c3)c2)[C@H](OC(=O)c2cc(O)c(O)c(OC(=O)c3cc(O)c(O)c(O)c3)c2)[C@@H](OC(=O)c2cc(O)c(O)c(OC(=O)c3cc(O)c(O)c(O)c3)c2)[C@@H]1OC(=O)c1cc(O)c(O)c(OC(=O)c2cc(O)c(O)c(O)c2)c1)c1cc(O)c(O)c(OC(=O)c2cc(O)c(O)c(O)c2)c1 [TANNIC ACID] = 116.8 mg/dL

====

species on record: Rattus norvegicus; assay: Open TG-GATES - Regimen: Single; format: toxicity, organism-based, Sprague-Dawley; set-up: regimen Single, gender Male, age 6 weeks; conditions: in vivo, po, 1000 mg/kg, 9 h, tissue Plasma, route gavage, dose level High
quantity: IP (mg/dL)

* O=C(OC[C@H]1O[C@@H](OC(=O)c2cc(O)c(O)c(OC(=O)c3cc(O)c(O)c(O)c3)c2)[C@H](OC(=O)c2cc(O)c(O)c(OC(=O)c3cc(O)c(O)c(O)c3)c2)[C@@H](OC(=O)c2cc(O)c(O)c(OC(=O)c3cc(O)c(O)c(O)c3)c2)[C@@H]1OC(=O)c1cc(O)c(O)c(OC(=O)c2cc(O)c(O)c(O)c2)c1)c1cc(O)c(O)c(OC(=O)c2cc(O)c(O)c(O)c2)c1 [TANNIC ACID] | 10.8
* COC(=O)C1=C(C)NC(C)=C(C(=O)OC)C1c1ccccc1[N+](=O)[O-] [NIFEDIPINE] | 11.9
* Cc1nnc2n1-c1ccc(Cl)cc1C(c1ccccc1Cl)=NC2 [TRIAZOLAM] | 10.6
* CN/C(=N/CCSCc1nc[nH]c1C)NC#N [CIMETIDINE] | 9.7
* CNC(=C[N+](=O)[O-])NCCSCc1ccc(CN(C)C)o1 [RANITIDINE] | 8.6

====

Here, each record is paired with measured KIDNEY_TOTAL data.
organism: Rattus norvegicus; experiment: Open TG-GATES - Regimen: Single; format: toxicity, organism-based, Sprague-Dawley; set-up: regimen Single, gender Male, age 6 weeks; details: in vivo, po, 0 mg/kg, 24 h, tissue Kidney, route gavage, dose level Control
quantity: KIDNEY_TOTAL (g)

• CS(=O)(=O)O.Cc1ccc(NC(=O)c2ccc(CN3CCN(C)CC3)cc2)cc1Nc1nccc(-c2cccnc2)n1 [IMATINIB MESYLATE] = 1.8
• Brc1ccccc1 [BROMOBENZENE] = 1.7
• CCOc1ccc(NC(C)=O)cc1 [PHENACETIN] = 1.9
• CN1C(=O)CCS(=O)(=O)C1c1ccc(Cl)cc1 (stereo not drawn) [CHLORMEZANONE] = 2
• CN/C(=N/CCSCc1nc[nH]c1C)NC#N [CIMETIDINE] = 2
• CC(C)NNC(=O)c1ccncc1 [IPRONIAZID] = 1.9
• O=C(OC[C@H]1O[C@@H](OC(=O)c2cc(O)c(O)c(OC(=O)c3cc(O)c(O)c(O)c3)c2)[C@H](OC(=O)c2cc(O)c(O)c(OC(=O)c3cc(O)c(O)c(O)c3)c2)[C@@H](OC(=O)c2cc(O)c(O)c(OC(=O)c3cc(O)c(O)c(O)c3)c2)[C@@H]1OC(=O)c1cc(O)c(O)c(OC(=O)c2cc(O)c(O)c(O)c2)c1)c1cc(O)c(O)c(OC(=O)c2cc(O)c(O)c(O)c2)c1 [TANNIC ACID] = 1.8
• CNC(=C[N+](=O)[O-])NCCSCc1ccc(CN(C)C)o1 [RANITIDINE] = 2.1

====

Reported LDH is given for each of the following compounds.
organism: Rattus norvegicus; assay: Open TG-GATES - Regimen: Daily Repeat; type: toxicity, organism-based, Sprague-Dawley; set-up: regimen Daily Repeat, gender Male, age 6 weeks; conditions: in vivo, po, 300 mg/kg, […], tissue Plasma, route gavage, dose level Middle, time 7 day
quantity: LDH (IU/L)

* CN/C(=N/CCSCc1nc[nH]c1C)NC#N | 168
* CCOc1ccc(NC(C)=O)cc1 | 79.4
* Cc1nnc2n1-c1ccc(Cl)cc1C(c1ccccc1Cl)=NC2 | 84.8
* CNC(=C[N+](=O)[O-])NCCSCc1ccc(CN(C)C)o1 | 159.2
* O=C(OC[C@H]1O[C@@H](OC(=O)c2cc(O)c(O)c(OC(=O)c3cc(O)c(O)c(O)c3)c2)[C@H](OC(=O)c2cc(O)c(O)c(OC(=O)c3cc(O)c(O)c(O)c3)c2)[C@@H](OC(=O)c2cc(O)c(O)c(OC(=O)c3cc(O)c(O)c(O)c3)c2)[C@@H]1OC(=O)c1cc(O)c(O)c(OC(=O)c2cc(O)c(O)c(O)c2)c1)c1cc(O)c(O)c(OC(=O)c2cc(O)c(O)c(O)c2)c1 | 98.6
